Record form. Attribute: Kd. Fill in for each entry.
- tested_target: T1, murine BACE1 ECD
- T1 construct: analyte of the Octet assay (200 nM) and enzyme of the first short substrate assay
- T1 sequence (single chain, as listed by the source limits assumed): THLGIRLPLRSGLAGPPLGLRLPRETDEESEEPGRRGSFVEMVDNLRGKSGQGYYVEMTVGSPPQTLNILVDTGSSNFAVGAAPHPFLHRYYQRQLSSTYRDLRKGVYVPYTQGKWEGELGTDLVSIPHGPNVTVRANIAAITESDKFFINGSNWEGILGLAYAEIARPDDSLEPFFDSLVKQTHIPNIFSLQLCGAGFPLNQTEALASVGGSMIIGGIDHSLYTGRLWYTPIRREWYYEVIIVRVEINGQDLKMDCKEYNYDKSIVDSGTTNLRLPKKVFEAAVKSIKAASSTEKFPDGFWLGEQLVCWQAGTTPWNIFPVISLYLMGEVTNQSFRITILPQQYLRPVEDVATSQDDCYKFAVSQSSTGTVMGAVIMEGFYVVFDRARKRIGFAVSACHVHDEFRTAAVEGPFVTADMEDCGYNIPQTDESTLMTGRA
- assay_summary: Octet, pH 7.5;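 further: antibodies captured on anti-human capture biosensor tips, dissociation followed in PBS with BSA buffer, kinetics fitted with a one-to-one binding model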
Numbers only, in nM.

>  <binder>
5876 (antibody, V domains shown, anti-BACE1 IgG) VH: EVQLLESGGGLVQPGGSLRLSCAASGFTFSSRAMGWVRQAPGKGLEWVSATSGSGGSIYYADSVKGRFTISRDNSKNTLYLQMNSLRAEDTAVYYCAKGGSQWLYAPGSWFDPWGQGTLVTVSS VL: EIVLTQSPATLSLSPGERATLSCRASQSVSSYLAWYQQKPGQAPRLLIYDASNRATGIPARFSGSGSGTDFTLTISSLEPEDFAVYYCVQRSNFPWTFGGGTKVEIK

>  <reported_result>
9.7

$$$$

Now take the following binder into account.
Enquiry: Which Kd is listed for 5644 (antibody, V domains shown, anti-BACE1 IgG) VH: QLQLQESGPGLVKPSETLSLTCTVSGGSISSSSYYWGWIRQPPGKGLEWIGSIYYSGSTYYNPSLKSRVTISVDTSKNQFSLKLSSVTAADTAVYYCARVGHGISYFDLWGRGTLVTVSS VL: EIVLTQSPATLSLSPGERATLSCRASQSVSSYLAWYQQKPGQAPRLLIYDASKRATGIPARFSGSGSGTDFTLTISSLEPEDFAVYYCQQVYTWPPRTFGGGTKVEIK ?
Return: 17
